molecular target: EGFR (C797S L858R) (Homo sapiens, UniProt P00533, C797S/L858R); construct: purchased signalchem; test: Inhibition of EGFR (C797S L858R) biochemical enzymatic activity (HTRF); details: EGFR (C797S L858R), 1 mM ATP, 1 h at room temperature, read-out: IC50 @L858-C797S
Sequence (P00533 25-1210 C797S/L858R): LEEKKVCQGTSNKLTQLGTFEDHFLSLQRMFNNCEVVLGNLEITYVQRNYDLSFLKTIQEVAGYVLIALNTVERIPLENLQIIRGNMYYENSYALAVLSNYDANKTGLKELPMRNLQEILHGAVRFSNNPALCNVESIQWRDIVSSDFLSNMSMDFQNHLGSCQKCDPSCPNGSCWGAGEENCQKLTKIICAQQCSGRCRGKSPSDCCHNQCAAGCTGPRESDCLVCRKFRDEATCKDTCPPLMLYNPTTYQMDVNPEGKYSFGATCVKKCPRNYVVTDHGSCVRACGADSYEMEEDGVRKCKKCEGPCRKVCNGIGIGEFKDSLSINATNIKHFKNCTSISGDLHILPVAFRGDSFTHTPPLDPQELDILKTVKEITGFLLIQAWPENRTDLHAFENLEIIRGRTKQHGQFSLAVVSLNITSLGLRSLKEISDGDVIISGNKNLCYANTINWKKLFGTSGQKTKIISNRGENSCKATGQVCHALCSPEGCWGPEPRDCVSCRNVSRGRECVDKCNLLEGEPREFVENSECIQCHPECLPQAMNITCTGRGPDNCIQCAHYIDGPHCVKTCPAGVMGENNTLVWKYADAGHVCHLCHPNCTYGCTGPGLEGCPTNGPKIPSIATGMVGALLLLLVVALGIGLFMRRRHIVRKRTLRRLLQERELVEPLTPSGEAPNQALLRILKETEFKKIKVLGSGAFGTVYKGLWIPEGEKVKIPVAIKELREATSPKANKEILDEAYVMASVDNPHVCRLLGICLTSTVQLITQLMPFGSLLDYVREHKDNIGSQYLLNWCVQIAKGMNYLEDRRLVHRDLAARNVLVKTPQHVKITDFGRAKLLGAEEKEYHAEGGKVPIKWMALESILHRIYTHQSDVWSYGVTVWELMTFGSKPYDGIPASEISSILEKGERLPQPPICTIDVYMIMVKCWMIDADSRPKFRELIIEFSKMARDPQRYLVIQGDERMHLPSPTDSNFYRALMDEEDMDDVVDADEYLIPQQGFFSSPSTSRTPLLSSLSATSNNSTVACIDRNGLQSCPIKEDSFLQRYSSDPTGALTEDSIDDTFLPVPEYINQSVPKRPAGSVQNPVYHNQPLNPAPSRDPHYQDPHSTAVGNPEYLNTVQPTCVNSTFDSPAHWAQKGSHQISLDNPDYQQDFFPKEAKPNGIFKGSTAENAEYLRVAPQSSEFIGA
pIC50: −log10 of the molar value.
parameter-measured: pIC50

[a] Cc1cc2cc(n1)-c1cnn(C)c1OCCN1CC3CCC(C3)(C1)n1c(nc3ccc(N4CC5CN(C)CC5C4)cc31)NC2=O (single isomer, unassigned) [Example B43B]
[b] Cc1cc2cc(n1)-c1cnn(C)c1OCCN1CC3CCC(CC3)(C1)n1c(nc3ccc(N(C)CCN(C)C)cc31)NC2=O [Example B32]
Pick one, a or b : lowest reported pIC50. Please indicate the selected item by its label.
b

* * *

molecular target: EGFR wild type (Homo sapiens, UniProt P00533); construct: purchased Carna Bio; experiment: Inhibition of EGFR wild type biochemical enzymatic activity (HTRF); conditions: EGFR wild type, 1 mM ATP, 1 h at room temperature, read-out: IC50 @WT
Sequence (P00533 25-1210): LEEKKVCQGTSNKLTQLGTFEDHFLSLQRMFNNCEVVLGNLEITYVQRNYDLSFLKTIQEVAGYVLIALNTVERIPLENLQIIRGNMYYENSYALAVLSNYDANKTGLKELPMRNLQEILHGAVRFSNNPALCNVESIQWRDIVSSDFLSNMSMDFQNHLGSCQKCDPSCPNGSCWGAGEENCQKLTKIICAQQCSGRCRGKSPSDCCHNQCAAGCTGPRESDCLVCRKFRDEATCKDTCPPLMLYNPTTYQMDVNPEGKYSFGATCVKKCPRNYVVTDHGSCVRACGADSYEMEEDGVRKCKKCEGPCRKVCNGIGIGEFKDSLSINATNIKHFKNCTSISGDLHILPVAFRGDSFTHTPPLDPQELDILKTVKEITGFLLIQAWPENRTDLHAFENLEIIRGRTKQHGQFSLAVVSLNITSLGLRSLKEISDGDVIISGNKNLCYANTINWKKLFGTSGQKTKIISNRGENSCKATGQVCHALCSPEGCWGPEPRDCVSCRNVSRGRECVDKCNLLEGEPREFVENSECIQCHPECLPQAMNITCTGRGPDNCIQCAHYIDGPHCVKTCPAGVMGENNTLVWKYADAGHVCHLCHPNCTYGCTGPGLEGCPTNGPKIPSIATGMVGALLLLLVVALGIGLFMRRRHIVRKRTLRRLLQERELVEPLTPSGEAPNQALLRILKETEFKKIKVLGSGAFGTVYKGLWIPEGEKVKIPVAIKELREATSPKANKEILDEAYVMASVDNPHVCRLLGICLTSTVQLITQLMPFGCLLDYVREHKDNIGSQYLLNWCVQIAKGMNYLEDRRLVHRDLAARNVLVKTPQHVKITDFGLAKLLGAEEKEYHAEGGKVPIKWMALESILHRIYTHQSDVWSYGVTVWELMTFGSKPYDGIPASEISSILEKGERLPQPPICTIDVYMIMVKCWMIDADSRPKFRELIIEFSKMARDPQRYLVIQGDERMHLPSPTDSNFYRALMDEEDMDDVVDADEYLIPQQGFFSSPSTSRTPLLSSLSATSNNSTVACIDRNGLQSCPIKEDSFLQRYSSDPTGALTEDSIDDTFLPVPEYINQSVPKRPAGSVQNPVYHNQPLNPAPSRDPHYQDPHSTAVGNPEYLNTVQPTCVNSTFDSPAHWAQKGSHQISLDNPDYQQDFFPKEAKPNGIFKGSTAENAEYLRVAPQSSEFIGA
parameter-measured: IC50 (nM)

Consider the compound shown here: Cc1cc2cc(n1)-c1cnn(C)c1OCCN1CC3CCC(C3)(C1)n1c(nc3ccc(N4CC[C@@H](N(C)C)C4)cc31)NC2=O (single isomer, unassigned) [Example B42B] What is its recorded IC50?
734

[A] Cc1cc2cc(n1)-c1cnn(C)c1OCCN1CC3CCC(C3)(C1)n1c(nc3ccc(N4CCN(C5COC5)CC4)cc31)NC2=O (single isomer, unassigned) [Example B58B]
[B] Cc1cc2cc(n1)-c1cnn(C)c1OCCN1CC3CCC(C3)(C1)n1c(nc3ccc(N4CC5CC4CN5C)cc31)NC2=O (single isomer, unassigned) [Example B53B]
[C] Cc1cc2cc(n1)-c1cnn(C)c1OCCN1CC3CCC(C3)(C1)n1c(nc3ccc(N4CCN(C(C)C)CC4)cc31)NC2=O (single isomer, unassigned) [Example B57B]
List by increasing IC50. API: response body holds the labels in the requested order.
C, B, A

* * *

molecular target: EGFR (C797S L858R) (Homo sapiens, UniProt P00533, C797S/L858R); construct: purchased signalchem; experiment: Inhibition of EGFR (C797S L858R) biochemical enzymatic activity (HTRF); details: EGFR (C797S L858R), 1 mM ATP, 1 h at room temperature, read-out: IC50 @L858-C797S
parameter-measured: IC50 (µM)

Worked cases, answers included:
Consider the compound shown here: Cc1cc2cc(n1)-c1cnn(C)c1OCCN1CC3CCC(C3)(C1)n1c(nc3ccc(N4CCN(C5CC5)CC4)cc31)NC2=O (single isomer, unassigned) [Example B55B] What is its recorded IC50?
0.006

Consider the compound shown here: Cc1cc2cc(n1)-c1cnn(C)c1OCCN1CC3CCC(C3)(C1)n1c(nc3ccc(N4CCC(N5CCN(C)CC5)C4)cc31)NC2=O (single isomer, unassigned) [Example B49B] What is its recorded IC50?
0.008

Consider the compound shown here: Cc1cc2cc(n1)-c1cnn(C)c1OCCN1CC3CCC(CC3)(C1)n1c(nc3ccc(N4CCN(C5CC5)CC4)cc31)NC2=O [Example B36] What is its recorded IC50?
0.159

Consider the compound shown here: Cc1cc2cc(n1)-c1cnn(C)c1OCCN1CC3CCC(C3)(C1)n1c(nc3ccc(N4CC[C@@H](N(C)C)C4)cc31)NC2=O (single isomer, unassigned) [Example B42B] What is its recorded IC50?
0.015

[A] Cc1cc2cc(n1)-c1cnn(C)c1OCCN1CC3CCC(C3)(C1)n1c(nc3ccc(N4CCC(N5CCOCC5)C4)cc31)NC2=O (single isomer, unassigned) [Example B44B1]
[B] Cc1cc2cc(n1)-c1cnn(C)c1OCCN1CC3CCC(C3)(C1)n1c(nc3ccc(N4CCC5(CC4)CCN5C)cc31)NC2=O (single isomer, unassigned) [Example B54B]
Pick one, A or B : lowest reported IC50. Please indicate the selected item by its label.
B

Origin of measurements: patent US20260365670A1
